Experiment: Randomized cross-over study of nebulizers, peak sputum tobramycin
Conditions: human, in vivo, inhaled or intranasal, 300 mg
observation-type: Cmax at 10 min

Please look at this compound and report its Cmax at 10 min: NC[C@H]1O[C@H](O[C@H]2[C@H](O)[C@@H](O[C@H]3O[C@H](CO)[C@@H](O)[C@H](N)[C@H]3O)[C@H](N)C[C@@H]2N)[C@H](N)C[C@@H]1O
~679000 ng/g
